The measured values listed here are drawn from ChEMBL document CHEMBL1153046.

system: 786-0; assay: Growth inhibition of human 786-0 cells after 48 hrs by sulforhodamine B assay; format: functional; conditions: 786-0, 48 h, read-out: LC50 (the source's name)
Catalogue of CC50 values

> print(dat)
                                   compound  study.system  recorded.result
1  COc1ccc(/C=N/c2nc3[nH]nc(C)n3c(=O)c2S(=O)(=O)NN2C(=O)C(CN3CCOCC3)SC2c2cccs2)cc1 (centres undefined)         786-0         > 100 µM

Here COc1ccc(/C=N/c2nc3[nH]nc(C)n3c(=O)c2S(=O)(=O)NN2C(=O)C(CN3CCN(C)CC3)SC2c2cccs2)cc1 (centres undefined) was tested on 786-0, and its CC50 came to > 100 µM

Reported CC50 (786-0) for entry COc1ccc(/C=N/c2nc3[nH]nc(C)n3c(=O)c2S(=O)(=O)NN2C(=O)C(CN3CCN(C)CC3)SC2c2ccc(OC)cc2)cc1 (centres undefined) is 59.9 µM

Case COc1ccc(/C=N/c2nc3[nH]nc(C)n3c(=O)c2S(=O)(=O)NN2C(=O)C(CN3CCOCC3)SC2c2ccc(OC)cc2)cc1 (centres undefined) , 786-0, CC50 recorded as > 100 µM

###

Each entry below carries its reported GI50.
test system: SF-295; test: Growth inhibition of human SF295 cells after 48 hrs by sulforhodamine B assay; assay type: functional; conditions: SF-295, 48 h
Reply with just the number (in µM).

# annotated cases, reported GI50 shown
> print(dat)
                                   molecule  unit.label  recorded.result
1  COc1ccc(/C=N/c2nc3[nH]nc(C)n3c(=O)c2S(=O)(=O)NN2C(=O)C(CN3CCOCC3)SC2c2ccc(OC)cc2)cc1 (centres undefined)          µM             33.2
2  COc1ccc(/C=N/c2nc3[nH]nc(C)n3c(=O)c2S(=O)(=O)NN2C(=O)C(CN3CCOCC3)SC2c2cccs2)cc1 (centres undefined)          µM             4.69
3  COc1ccc(/C=N/c2nc3[nH]nc(C)n3c(=O)c2S(=O)(=O)NN2C(=O)C(CN3CCN(C)CC3)SC2c2ccc(OC)cc2)cc1 (centres undefined)          µM             16.8

// moving on: another record for GI50
Noted for COc1ccc(/C=N/c2nc3[nH]nc(C)n3c(=O)c2S(=O)(=O)NN2C(=O)C(CN3CCN(C)CC3)SC2c2cccs2)cc1 (centres undefined) : its GI50 reads 1.02

###

Readings of LC50 (50% lethal concentration) for the listed compounds
tested on: MDA-MB-231; experiment: Growth inhibition of human MDA-MB-231 cells after 48 hrs by sulforhodamine B assay; assay type: functional; conditions: MDA-MB-231, 48 h

> print(dat)
                                   compound  recorded.result
1  COc1ccc(/C=N/c2nc3[nH]nc(C)n3c(=O)c2S(=O)(=O)NN2C(=O)C(CN3CCOCC3)SC2c2ccc(OC)cc2)cc1 (centres undefined)         > 100 µM

Field LC50 (50% lethal concentration) (entry COc1ccc(/C=N/c2nc3[nH]nc(C)n3c(=O)c2S(=O)(=O)NN2C(=O)C(CN3CCN(C)CC3)SC2c2cccs2)cc1 (centres undefined) ) reads > 100 µM

COc1ccc(/C=N/c2nc3[nH]nc(C)n3c(=O)c2S(=O)(=O)NN2C(=O)C(CN3CCN(C)CC3)SC2c2ccc(OC)cc2)cc1 (centres undefined) yielded LC50 (50% lethal concentration) of 88.6 µM

Per the record, COc1ccc(/C=N/c2nc3[nH]nc(C)n3c(=O)c2S(=O)(=O)NN2C(=O)C(CN3CCOCC3)SC2c2cccs2)cc1 (centres undefined) has LC50 (50% lethal concentration) of > 100 µM

###

system: RXF 393; experiment: Growth inhibition of human RXF393 cells after 48 hrs by sulforhodamine B assay; format: functional; conditions: RXF 393, 48 h, read-out: LC50 (the source's name)
measurement type: CC50

Some compounds with known CC50 results, for comparison:
> print(dat)
                                   compound  measurement.type  recorded.result
1  COc1ccc(/C=N/c2nc3[nH]nc(C)n3c(=O)c2S(=O)(=O)NN2C(=O)C(CN3CCOCC3)SC2c2ccc(OC)cc2)cc1 (centres undefined)              CC50         > 100 µM
2  COc1ccc(/C=N/c2nc3[nH]nc(C)n3c(=O)c2S(=O)(=O)NN2C(=O)C(CN3CCN(C)CC3)SC2c2cccs2)cc1 (centres undefined)              CC50         > 100 µM
3  COc1ccc(/C=N/c2nc3[nH]nc(C)n3c(=O)c2S(=O)(=O)NN2C(=O)C(CN3CCN(C)CC3)SC2c2ccc(OC)cc2)cc1 (centres undefined)              CC50          95.1 µM

Lab note: measured CC50 of COc1ccc(/C=N/c2nc3[nH]nc(C)n3c(=O)c2S(=O)(=O)NN2C(=O)C(CN3CCOCC3)SC2c2cccs2)cc1 (centres undefined) was > 100 µM

###

Documented GI50 across a set of molecules
test system: OVCAR-4; assay: Growth inhibition of human OVCAR4 cells after 48 hrs by sulforhodamine B assay; type: functional; conditions: OVCAR-4, 48 h

> print(dat)
                                   molecule  recorded.result
1  COc1ccc(/C=N/c2nc3[nH]nc(C)n3c(=O)c2S(=O)(=O)NN2C(=O)C(CN3CCOCC3)SC2c2cccs2)cc1 (centres undefined)         > 100 µM

COc1ccc(/C=N/c2nc3[nH]nc(C)n3c(=O)c2S(=O)(=O)NN2C(=O)C(CN3CCN(C)CC3)SC2c2cccs2)cc1 (centres undefined) yielded GI50 of > 100 µM

Briefly, GI50 measured for COc1ccc(/C=N/c2nc3[nH]nc(C)n3c(=O)c2S(=O)(=O)NN2C(=O)C(CN3CCN(C)CC3)SC2c2ccc(OC)cc2)cc1 (centres undefined) : 23.3 µM

Lab book: GI50 of COc1ccc(/C=N/c2nc3[nH]nc(C)n3c(=O)c2S(=O)(=O)NN2C(=O)C(CN3CCOCC3)SC2c2ccc(OC)cc2)cc1 (centres undefined) noted as 94.4 µM

###

test system: A498; experiment: Growth inhibition of human A498 cells after 48 hrs by sulforhodamine B assay; format: functional; settings: A498, 48 h
Reported values of GI50 for individual entries
The answer is to be given in µM; state only the numeric part.

// solved cases for GI50 follow
> print(dat)
                                   molecule  recorded.result
1  COc1ccc(/C=N/c2nc3[nH]nc(C)n3c(=O)c2S(=O)(=O)NN2C(=O)C(CN3CCOCC3)SC2c2cccs2)cc1 (centres undefined)             2.67
2  COc1ccc(/C=N/c2nc3[nH]nc(C)n3c(=O)c2S(=O)(=O)NN2C(=O)C(CN3CCN(C)CC3)SC2c2ccc(OC)cc2)cc1 (centres undefined)             12.9

Record COc1ccc(/C=N/c2nc3[nH]nc(C)n3c(=O)c2S(=O)(=O)NN2C(=O)C(CN3CCN(C)CC3)SC2c2cccs2)cc1 (centres undefined) , field GI50: 0.5

Quick note, GI50 for COc1ccc(/C=N/c2nc3[nH]nc(C)n3c(=O)c2S(=O)(=O)NN2C(=O)C(CN3CCOCC3)SC2c2ccc(OC)cc2)cc1 (centres undefined) landed at 25.5

###

system: SNB-75; assay: Growth inhibition of human SNB75 cells after 48 hrs by sulforhodamine B assay; format: functional; settings: SNB-75, 48 h
measurement type: TGI

Solved cases below.
> print(dat)
                                   molecule  study.system  recorded.result
1  COc1ccc(/C=N/c2nc3[nH]nc(C)n3c(=O)c2S(=O)(=O)NN2C(=O)C(CN3CCN(C)CC3)SC2c2ccc(OC)cc2)cc1 (centres undefined)        SNB-75          51.8 µM
2  COc1ccc(/C=N/c2nc3[nH]nc(C)n3c(=O)c2S(=O)(=O)NN2C(=O)C(CN3CCN(C)CC3)SC2c2cccs2)cc1 (centres undefined)        SNB-75         > 100 µM
3  COc1ccc(/C=N/c2nc3[nH]nc(C)n3c(=O)c2S(=O)(=O)NN2C(=O)C(CN3CCOCC3)SC2c2cccs2)cc1 (centres undefined)        SNB-75         > 100 µM

// next entry
The value of TGI measured for the molecule COc1ccc(/C=N/c2nc3[nH]nc(C)n3c(=O)c2S(=O)(=O)NN2C(=O)C(CN3CCOCC3)SC2c2ccc(OC)cc2)cc1 (centres undefined) turned out to be > 100 µM
